EXPERIMENTAL_ENDPOINT: melting point

• CCN1CCc2ccc(OC)c(Nc3ncc(Cl)c(Nc4ccccc4S(=O)(=O)NC)n3)c2CC1 = 171 to 188 °C
• O=[N+]([O-])c1ccc(OCC(COc2ccc([N+](=O)[O-])cc2)(COc2ccc([N+](=O)[O-])cc2)COc2ccc([N+](=O)[O-])cc2)cc1 = 274 to 282 °C
• Cc1cn(Cc2ccccc2)c(=O)[nH]c1=O = 170 to 173 °C
• CCCCc1nc2cccc(C(=O)O)c2n1Cc1ccc(-c2ccccc2S(=O)(=O)NC(=O)NCC2CC2)cc1 = 234 to 236 °C
• C=CC[C@@H]1C[C@@H](COc2ccc(-c3ccc(C#N)cc3)cc2)N(Cc2ccc(OC)cc2)C1=O = 120 to 122 °C
• O=P(O)(O)C(CCCc1ccc(-c2ccccc2)cc1)P(=O)(O)O = 199 to 200 °C
• COc1ccc(S(=O)(=O)C2(C(=O)O)CCN(Cc3ccc(OCCN4CCCCC4)cc3)CC2)cc1 = 114 °C
• CC(=O)OCCCCCCSCC(=O)c1ccc2c(c1)CC(=O)N2 = 86 to 87 °C

These entries and their values trace back to a melting point compilation (Tetko et al.; mined from patent text by program, amines drawn as free bases though some values may be those of a salt).
